- test-system: Pim1 kinase (Homo sapiens, UniProt P11309)
- Sequence (P11309 whole entry): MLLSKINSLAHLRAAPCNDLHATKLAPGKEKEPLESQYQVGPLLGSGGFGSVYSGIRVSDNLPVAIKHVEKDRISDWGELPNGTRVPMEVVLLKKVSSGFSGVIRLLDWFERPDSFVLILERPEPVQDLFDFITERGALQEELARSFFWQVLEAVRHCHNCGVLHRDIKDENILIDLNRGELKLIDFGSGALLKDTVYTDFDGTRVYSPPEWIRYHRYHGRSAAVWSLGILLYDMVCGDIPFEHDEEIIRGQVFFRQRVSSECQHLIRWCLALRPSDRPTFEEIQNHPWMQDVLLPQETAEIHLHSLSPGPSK
- protocol-description: KinaseGlo Pim1 ATP depletion assay
- Assay type: biochemical
- measurement-parameters: Table 4, 2.5 nM PIM1, 20 μM ATP, 40 μM BAD peptide
measurement-name: IC50 (nM)

Completed entries (count: 4):
compound="C[C@H]1C[C@@H](c2ccncc2NC(=O)c2cncc(-c3ccccc3)n2)C[C@@H](O)[C@]1(C)O [Example 36]" readout_number=525
compound="C[C@H]1C[C@@H](c2ccncc2NC(=O)c2nc(-c3c(F)cncc3F)ccc2N)C[C@@H](O)[C@]1(C)O [Example 141]" readout_number=1.1
compound="C[C@H]1C[C@@H](c2ccncc2NC(=O)c2nc(-c3nccs3)ccc2N)C[C@@H](O)[C@]1(C)O [Example 52]" readout_number=2
compound="CC[C@]1(O)[C@H](C)C[C@H](c2ccncc2NC(=O)c2nc(-c3c(F)cccc3F)ncc2N)C[C@@H]1O [Example 35]" readout_number=49.5

[1] C[C@H]1C[C@@H](c2ccncc2NC(=O)c2ccnc(-c3c(F)cccc3F)n2)C[C@@H](O)[C@@]1(O)CO [Example 39]
[2] COc1cc(F)c(-c2cccc(C(=O)Nc3cnccc3[C@H]3C[C@@H](O)[C@](C)(O)[C@@H](C)C3)n2)c(F)c1 [Example 50]
Please state the entry with greater IC50 among 1 and 2 . Answer by quoting the chosen item's label.
1
